tested on: LG0567-F671-PDC complex spheroids viability; assay: Anticancer human tumor LG0567-F671-PDC patient-derived lung adenocarcinoma cell line growth inhibition [RAS]; conditions: second compound 3.16 µM; first compound 0.316 µM; active means viability on the fitted dose curve at most 10% of control; inactive means the rest
Give one outcome, nothing more. List: active, inactive

Write down the call the test reported for this compound. Item: CCC(CC)c1cc(NC2CCC(N)C2)n2nccc2n1 (stereo not drawn) + C#Cc1c(F)ccc2cc(O)cc(-c3ncc4c(N5CC6CCC(C5)N6)nc(OCC56CCCN5CC(F)C6)nc4c3F)c12 inactive

Any idea what this test logged for C=CC(=O)N1CCN(c2nc(OCC3CCCN3C)nc3c(F)c(-c4nc(N)cc(C)c4C(F)(F)F)c(Cl)cc23)C(C)C1 (stereo not drawn) + C#Cc1c(F)ccc2cc(O)cc(-c3ncc4c(N5CC6CCC(C5)N6)nc(OCC56CCCN5CC(F)C6)nc4c3F)c12 ? active

Answer briefly: the call reported for C=CC(=O)Nc1cc(Nc2nccc(-c3cn(C)c4ccccc34)n2)c(OC)cc1N(C)CCN(C)C + C#Cc1c(F)ccc2cc(O)cc(-c3ncc4c(N5CC6CCC(C5)N6)nc(OCC56CCCN5CC(F)C6)nc4c3F)c12 in this assay. active

* * *

tested on: LG0567-F671-PDC complex spheroids viability; test: Anticancer human tumor LG0567-F671-PDC cell line growth inhibition [RAS]; conditions: second compound 3.16 µM; first compound 0.316 µM; hits give low values;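 further: spheroids exposed to compound for seven days before readout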
Binary label based on viability, T/C with cut-off 10%: below gives Y, not below gives N.

Hello, is viability, T/C of the following molecule strictly smaller than 10%? Cc1nc(N2CCC3(CC2)COC(C)C3N)c(CO)nc1Sc1ccnc(N)c1Cl (stereo not given) + C#Cc1c(F)ccc2cc(O)cc(-c3ncc4c(N5CC6CCC(C5)N6)nc(OCC56CCCN5CC(F)C6)nc4c3F)c12 Y

Quick check: does NC1c2ccccc2OC12CCN(c1cnc3c(N4CCCc5ncccc54)n[nH]c3n1)CC2 (stereo not given) + C#Cc1c(F)ccc2cc(O)cc(-c3ncc4c(N5CC6CCC(C5)N6)nc(OCC56CCCN5CC(F)C6)nc4c3F)c12 have viability, T/C under 10%? Y

Strictly below 10% in viability, T/C? CC(Nc1ccc2c(c1)OCCn1cc(N3C(=O)OCC3C(F)F)nc1-2)C(N)=O (stereo not given) + C#Cc1c(F)ccc2cc(O)cc(-c3ncc4c(N5CC6CCC(C5)N6)nc(OCC56CCCN5CC(F)C6)nc4c3F)c12 N

Bench note: check whether CC(C)NCC(C(=O)N1CCN(c2ncnc3c2C(C)CC3O)CC1)c1ccc(Cl)cc1 (stereo not given) + C#Cc1c(F)ccc2cc(O)cc(-c3ncc4c(N5CC6CCC(C5)N6)nc(OCC56CCCN5CC(F)C6)nc4c3F)c12 shows viability, T/C below 10% N

Answer whether the molecule CC1(O)CCCC1n1c(=O)c(C(F)F)cc2cnc(NC3CCN(S(C)(=O)=O)CC3)nc21 (stereo not given) + C#Cc1c(F)ccc2cc(O)cc(-c3ncc4c(N5CC6CCC(C5)N6)nc(OCC56CCCN5CC(F)C6)nc4c3F)c12 has viability, T/C strictly less than 10% N

Decide: viability, T/C of CC(=O)OC12COC1CC(O)C1(C)C(=O)C(O)C3=C(C)C(OC(=O)C(O)C(NC(=O)OC(C)(C)C)c4ccccc4)CC(O)(C(OC(=O)c4ccccc4)C21)C3(C)C (stereo not given) + C#Cc1c(F)ccc2cc(O)cc(-c3ncc4c(N5CC6CCC(C5)N6)nc(OCC56CCCN5CC(F)C6)nc4c3F)c12 strictly below 10%? N

I wonder whether O=C(c1ccc(F)c(F)c1Nc1ccc(I)cc1F)N1CC(O)([C@@H]2CCCCN2)C1 + C#Cc1c(F)ccc2cc(O)cc(-c3ncc4c(N5CC6CCC(C5)N6)nc(OCC56CCCN5CC(F)C6)nc4c3F)c12 has viability, T/C below 10%. Can you tell? Y

viability, T/C strictly < 10% for this molecule? CCN1CCN(Cc2ccc(Nc3ncc(F)c(-c4cc(F)c5nc(C)n(C(C)C)c5c4)n3)nc2)CC1 + C#Cc1c(F)ccc2cc(O)cc(-c3ncc4c(N5CC6CCC(C5)N6)nc(OCC56CCCN5CC(F)C6)nc4c3F)c12 N

Given the entry Nc1ccn(C2OC(CO)C(O)C2(F)F)c(=O)n1 (stereo not given) + C#Cc1c(F)ccc2cc(O)cc(-c3ncc4c(N5CC6CCC(C5)N6)nc(OCC56CCCN5CC(F)C6)nc4c3F)c12 , would its reported viability, T/C be below 10%? N

Record C[C@@H](NC(=O)c1ncnc(N)c1Cl)c1ncc(C(=O)Nc2cc(C(F)(F)F)c(Cl)cn2)s1 + C#Cc1c(F)ccc2cc(O)cc(-c3ncc4c(N5CC6CCC(C5)N6)nc(OCC56CCCN5CC(F)C6)nc4c3F)c12 : is its viability, T/C strictly below 10%? N

// provenance: PubChem BioAssay AID2060889
